# Test system: UACC-62 melanoma
# Method summary: NCI tumour cell line growth inhibition, 48 h; in the data active = GI50 below about 0.43 µM; inactive = the rest
Response enum: active, inactive

CC(=O)NCc1cccc(C#Cc2cncnc2Nc2ccc(OCc3cccc(F)c3)c(Cl)c2)c1	inactive
c1ccc(-c2nc(N3CCNCC3)c3oc(-c4ccccc4)nc3n2)cc1	inactive
c1ccc2cc(-c3n(Cc4ccc5ccccc5n4)c4ccccc4[n+]3Cc3ccc4ccccc4n3)ccc2c1	active

Please look at the following compound next.
Record lookup: outcome of this test for CC1(C)CC(=O)C2=C(C1)OC(N)=C(c1nc(-c3ccccc3)cs1)C2c1ccc(Br)cc1 (centres undefined) ? inactive

====

# Tested on: SK-OV-3 ovarian
# Method summary: NCI tumour cell line growth inhibition, 48 h
Measured quantity: TGI

Solved entries (count: 6):
CCCCCCCC1(N=[N+]=[N-])C(=O)Nc2ccccc2C1=O (stereo not given)	30.4 µM
CCOC(=O)C1(C(=O)OCC)[C@@H](c2ccccc2)C2=NO[C@@H]3CCC[C@H]1[C@H]23	> 100 µM
COc1ccc(-c2nc(/C=C3\SC(=NCc4ccccc4)NC3=O)c3ccccn23)cc1	4.28 µM
C=C(C)C1Cc2c(c3ccccc3n(C)c2=O)O1 (stereo not given)	> 100 µM
C/C(=N/N=C(\[O-])c1ccncc1)C(F)(F)F.C/C(=N\N=C(/[O-])c1ccncc1)C(F)(F)F.[Ni+2]	0.005 µM
Nc1nc(Nc2ccccc2)c2[nH]cnc2n1	> 100 µM

Quick note, TGI for CC(C)=CCN1CC(C)C(=O)Nc2ccccc21 (stereo not given) landed at > 100 µM

Summary for this compound, COc1ccc(/C=N/n2c(C)n[nH]c2=O)c(OC)c1 : TGI is > 100 µM

# TGI of COc1ccc(N(CC(=O)NCCC[Te]c2ccccc2)C(=O)CNC(=O)OC(C)(C)C)cc1 = 4.83 µM

// TGI lookup, compound = CC1=NN(c2nc(N)nc(/C(C#N)=C\c3csc([N+](=O)[O-])c3)n2)C(C)(C)C1 , result: > 100 µM

So, O=C(Nc1cccc(-n2cc(-c3ccncc3)c(-c3cc(O)cc(Cl)c3)n2)c1)c1cc(C(F)(F)F)cc(C(F)(F)F)c1 ? Its TGI was > 100 µM

Looking up Cc1ccc(/C(C#N)=C/c2cccc([N+](=O)[O-])c2)cc1 , I found its TGI recorded as > 100 µM
